biological target: T1, full length human tau protein 2N4R (hT40) (human, UniProt P10636 1-758); assay: SPR, scAb captured, tau analyte
T1 construct: recombinant; also called T441
T1 sequence (P10636 other isoform, or with tags, fused parts or gaps limits assumed): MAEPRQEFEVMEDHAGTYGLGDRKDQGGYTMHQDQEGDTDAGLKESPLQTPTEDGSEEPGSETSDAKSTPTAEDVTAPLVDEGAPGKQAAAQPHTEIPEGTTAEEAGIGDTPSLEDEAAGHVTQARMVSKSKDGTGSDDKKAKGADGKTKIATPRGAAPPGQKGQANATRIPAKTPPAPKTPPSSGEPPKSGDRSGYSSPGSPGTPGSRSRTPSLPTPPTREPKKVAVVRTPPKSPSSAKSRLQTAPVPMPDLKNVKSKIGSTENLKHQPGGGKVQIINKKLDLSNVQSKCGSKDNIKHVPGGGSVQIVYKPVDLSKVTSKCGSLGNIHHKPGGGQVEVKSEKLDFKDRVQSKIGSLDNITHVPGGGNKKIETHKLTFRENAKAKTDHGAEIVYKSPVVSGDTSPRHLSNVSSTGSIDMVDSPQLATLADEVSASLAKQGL
Recorded koff for the following binders

S1D12 scAb (scFv, not shown: small tags and cut ends, scAb) scFv: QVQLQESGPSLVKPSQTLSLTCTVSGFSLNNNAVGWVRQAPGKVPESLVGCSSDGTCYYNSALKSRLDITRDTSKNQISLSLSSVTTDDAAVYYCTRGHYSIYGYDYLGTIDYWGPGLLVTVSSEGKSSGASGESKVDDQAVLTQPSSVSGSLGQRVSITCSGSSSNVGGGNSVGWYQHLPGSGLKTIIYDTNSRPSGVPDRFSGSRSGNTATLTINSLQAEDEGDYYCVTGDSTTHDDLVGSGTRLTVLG; 0.00015 s⁻¹

--- query ---
Consider the binder 3aA6 scAb (scFv, not shown: small tags and cut ends, scAb) scFv: QVRLQESGSSLVKPSQTLSLVCTVSGFPLTSNAVGWVRQAPGKAPEWLGLIDIDGDTAYNPALESRLSITRDTSKSQVSLSLSSVAIEDTAVYYCARHYDKWGYADSIDYWGPGLLVTVSSEGKSSGASGESKVDDQALLTQPSSVFGSLGQRVSITCSGSSSNVGYGDYVGWYQQVPGSAPKLLIYDATTRASGVPDRFSGSRSGNTATLTISSLQAEDEADYYCASYQNERSGVFGSGTRLTVLG and give its measured koff.
0.0188 s⁻¹

Data origin: patent US20250355001A1
